B1: glmS ribozyme (parent)
chain: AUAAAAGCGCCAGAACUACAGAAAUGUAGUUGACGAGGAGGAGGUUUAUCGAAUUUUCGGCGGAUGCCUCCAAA

variants of: B1; assay: self-cleavage kobs at 2500 uM GlcN6P; higher = faster cleavage; RNA array; details: with glucosamine-6-phosphate
Variants at the floor of the assay were thinned out.
Reported self-cleavage kobs at 2500 uM GlcN6P values for the following variants.

# construct sequence, self-cleavage kobs at 2500 uM GlcN6P
data = [
    ("AUAAAAGCGCCAGAACUACAGAAAUGUAGCUGACGAGGAGGAUGUUUAUCGAAUUUUCGGCGGAUGCCUCCAAA", "< 1e-05 s⁻¹"),
    ("AUAAAAGCGCCAGAACUACAGAAAUGUAGUUGAUGAGGAAGAGGUUUAUCGAAUUUACGGCGGAUGCCUCCAAA", "< 1e-05 s⁻¹"),
    ("AUAAAAGCGCCAGAACUACAGAAAUGUAGUUGACGCGGAGGAGGUUUAUCGAAUUUUCGGCGGACGCCUCCAAA", "< 1e-05 s⁻¹"),
    ("AUAAAAGCCCCAGAACUACAGAAAUGUAGUUGACGAGGAGGAGGUUUAUCCAAUUUUCGGCGGAUGCCUCCAAA", "< 1e-05 s⁻¹"),
    ("AUAAAAGCGCCAGAACUACAGAAAUGUAAUUGACGAGGAGAAGGUUUCUCGAAUUUUCGGCGGAUGCCUCGAAA", "< 1e-05 s⁻¹"),
    ("AUAAAGGCGCCAGAACUACAGAAAUGUAGUUGACGAGAAAGAGGUUUAUCGAAUUUUCGCCGGAUGCCUCCAAA", "< 1e-05 s⁻¹"),
    ("AUAAAUGCGUCCGAACUACAGAAAUGUAGUUGACGAGGAGGAGGUUUAUCGAAUUUUCGACGGAUGUCUCCAAA", "< 1e-05 s⁻¹"),
    ("AUAAAAGGGCCAGAACUACAGAAAUGUAGUUGACGAGGAGGAGGUUUAUCGAAUUUUCGGCGGAUGACUCCAAA", "< 1e-05 s⁻¹"),
    ("AUAAAAGCGCCAGAACUACAGAAAUGUAGUUGACGAGGAUGAGGUGGAUCGAAUAUUCGGCGUAUGCCUCCAAA", "< 1e-05 s⁻¹"),
    ("AUAAAAGCACCAGAACUACAGAAAUGUAGUUGACGAAUAGGAGGUUUAUCGAAUUUUCGGCGGAUGCCUCCAAA", "< 1e-05 s⁻¹"),
    ("AUAAAAGCGCCAGAUCUACAGAAAUGUAGUUGUCGAGGAGGAGGUUUAUCGAAUUUUCUGCGGAUGCCUCCAAA", "< 1e-05 s⁻¹"),
    ("AUAAAAGCGCCAGAACUACAGAAAUGUAGUUGACGAGCAGGAGGUUUAUCGAAUUCUCGGCGGAUGCCUCCAAA", "< 1e-05 s⁻¹"),
    ("AUAAAGGCGCCAGAACUACAGAAAUGUACUCGACGAGGAGGAGGUUUAUCGAAUUUUCGGCGGAUGCCUCCAAA", "< 1e-05 s⁻¹"),
    ("AUAAAAACGCCAGAACUACAGAAAUGUAGUUGACGAGGAGGAGGUUUAUCGUAUUUUCGGCGCAUGCCUCCAAA", "< 1e-05 s⁻¹"),
    ("AUAAAAGCGCCAGAACUACAGAAAUGUACUUGACGAGGAGGAGGUUUAUCGAAUUUUCUGCGGAUCCCUACAAA", "0.000112 s⁻¹"),
    ("AUAAAAGCGCCAGUACUACAGAAAUGUAGGUGACGAGGAGGAGGUUUAUCGAAUUUUCGGCGGAUGCCUCCAAA", "0.0033 s⁻¹"),
    ("AUAAAAGCGCCAGAACUACAGAAAUGUAGUUGACGAGAAGUACGUUUAUCGAUUUUUCAGCGGCUGCCUCCAAA", "< 1e-05 s⁻¹"),
    ("AUAAAAGCGCCAGAACUACAGAAAUGUAGUUGACGAGACUGAAGUUUAGCGAACUUUCGGCGGAUGCCUCCAAA", "< 1e-05 s⁻¹"),
    ("AUAAAAGCGCCAGAACUACAGAAAUGUAAUCGAUGAGGAGGAGGUUUAUCGAAUUUUCGGCGGAUGCCUCCAAA", "< 1e-05 s⁻¹"),
    ("AUAAACGCGCCUGAACUACAGAAAUGUAGUUGACGAGGAGGAGGUUUAUCUAAGUUUCGGCGGAUGCCUCCAAA", "< 1e-05 s⁻¹"),
    ("AUAAAAGCGCCAGAACUACAGAAAUGUAGAUGACGAGGGGGAGGUUUAUCGAAUUUUCGGCGGAUGCCGCCAAA", "5.54e-05 s⁻¹"),
    ("AUAAAAGCGCCAGAACUACAGAAAUGUAAUUGACGAGGAGGAGGUUUAUCGAAUUUUCGGCGGAUGUCUCCAAA", "0.00056 s⁻¹"),
    ("AUAAAAGCGCCAGAACUACAGAAAUGUAGUCGAUGAGGAGGAGGUUUAUCGAAUUUUCGGCGGAUGCCUCUAAA", "< 1e-05 s⁻¹"),
    ("AUAAAAGCGCCAGAUCUACAGAAAUGUAGUUGACGAGGAGGAGGUUUAUCGAAUUUUCGGCAGAUGCCUCCAAA", "< 1e-05 s⁻¹"),
    ("AUAAAAGCGCCAGAUCUACAGAAAUGUAGUUGACGAGGAGGAUGUUUAUCGAAUUAUCGGCGGAUGCAUCCAAA", "0.00532 s⁻¹"),
    ("AUAAAAGCGCCAGAACUACAGAAAUGUAGUUGACGAGGACGAGGGUUAUCGAAUUUUUGGCGGAUGCCUCCAAA", "< 1e-05 s⁻¹"),
    ("AUAAAAGCGCCAGAACUACAGAAAUGUAGUUCACGAGGAGGAGGUUUAUUGAAUUUUGGGCGGAUGCCUCCAAA", "< 1e-05 s⁻¹"),
    ("AUAAAAGCGCCAGACCUACAGAAAUGUAGUUCACGAGGAGGAGGUUUAUCGAAUUUUCGGCGGAUGCCUCCAAA", "7.51e-05 s⁻¹"),
    ("AUAAAAGCGCCAGAACUACAGAAAUGUAUUUGACGAGGAGGAGGUUUAUCGAAUUUUAGGCGGAUGCCUCCAAA", "0.000103 s⁻¹"),
    ("AUAAAAGCGCCAGAACUACAGAAAUGUAGUUGACGAGGAGGAAGUUAAUCGAAUUUUCGGCGGAUGCCUCCAAA", "1.85e-05 s⁻¹"),
    ("AUAAAAGCGCCAGAACUACAGAAAUGUAGUUGACGAGGGGGAGGUUUAUCGAAUGUUCGGCGGAUGCCUCUAAA", "0.00336 s⁻¹"),
    ("AUAAAAGCGCCAGAACUACAGAAAUGUAGUUGACGAGGAGGAGAUUUAUCGAAUUUUCGGCGGAUGCCACCAAA", "< 1e-05 s⁻¹"),
    ("AUAAAAGCGCCAGAACUACAGAAAUGUAGUUGACGAGGAGGAGGUUUGUCGAAUUUUCGGCGUAUGCCUCCAAA", "< 1e-05 s⁻¹"),
    ("AUAAAAGCGCCGGAACUACAGAAAUGUAGUUGAAGAGGAGGAGGAUUAUCGAAUUUUCGGCGGAUGCCUCCAAA", "< 1e-05 s⁻¹"),
    ("AUAAAAGCGCCAGAACUACAGAAAUGUAGUUGACGAGGAGGAGGUUUAUCGAAAUUUCGGCGGAUGCCCCCAAA", "0.000214 s⁻¹"),
    ("AUAAAAGCGCCAGAACUACAGAAAUGUAGUUGACGAGGAGGCGGUAUAUCGAAUUAUCGGCGGAUGCCUCCAAA", "< 1e-05 s⁻¹"),
    ("AUAAAAGCGCCAGAACUACAGAAAUGUAGUUGACGAGGAGGAUGUUUAUCGAAUUUUCGGCGGAUGCCUCCAAA", "3.98e-05 s⁻¹"),
    ("AUAAAAGCGCCAGAACUACAGAAAUGUAGUUGAGGAGGAGCAGGUUUAUCGAAUUUUCGGCGGAUGCCUCCAAA", "< 1e-05 s⁻¹"),
    ("AUAAAAGCGCCAGAACUACAGAAAUGUAGUUGACGAGGAGGAGGCUUAUCGAAUUUUCGGCGUAUGCCUCCAAA", "< 1e-05 s⁻¹"),
    ("AUAAAAGCGCCAUAACUACAGAAAUGUAGUUGACGAGGAGGAGGUUGAUCGAAUUUUCGGCGGAUGUCUCCAAA", "8.34e-05 s⁻¹"),
    ("AUAAAAGCGCCAGAACUACAGAAAUUUAGUUGACGAGGAGGAGGUUUAUCGAAUUUUCGGCGGAUGUCUCCAAA", "0.000381 s⁻¹"),
    ("AUAAAAGCGCCAGAACUACAGAAAUGUAGUUGACGAGGAGGAUUUUUAUCGAAUUUUCGGCGGAUGCCUCCAAA", "< 1e-05 s⁻¹"),
    ("AUAAAAGCGCCAGAACUACAGAAAUGUAGUUGACGUGGAGAUUGUUUAUCGAAUUUUCGGCGGAUGCCUCCAAA", "< 1e-05 s⁻¹"),
    ("AUAAAAGCGCCACAACUACAGAAAUGUAGUUGACGAGGAGGAGGUUUCUCGAAUUUUCGGCGGAUGCCUCCAAA", "< 1e-05 s⁻¹"),
    ("AUAAAAGCGAAAGAACUACAGAAAUGUAGUUGACGAGGCGGAGGUUUAUCGAAUUUUCGGCGGAUGCCUCCAAA", "< 1e-05 s⁻¹"),
    ("AUAAAAGCGCCUAAACUACAGAAAUGUAGUUGACGAGGAGGAGGUUUAUGGAAUUUUCGGCGGAUGUCUCCAAA", "0.000208 s⁻¹"),
    ("AUAAAAGCGCCAGAGGUACAGAAAUGUAGUUGACGAGGAGGAGGUUUAUCGAAUUUUCGGCGGAUGCCUCCAAA", "0.00326 s⁻¹"),
    ("AUAAAAGCGCCAGAACUACAGAAAUGUAGUUGACGAGGAGGAGGUUUAUCGGAAUUUCGGCGGAUGCCUCCAAA", "0.00057 s⁻¹"),
    ("AUAAAAGGGCCAGAACUACAGAAAUGUAGUUGACGACGAGGAAGUUUAUCGAAUUUUCAGCGGAUGCCUCCAAA", "< 1e-05 s⁻¹"),
    ("AUAAAAGCGCCAGAACUACAGAAAUGUAGUCGACGAGGAGGAGGUUUAUCGAAUUUUCGGCGGAUGCCCCCAAA", "0.00045 s⁻¹"),
    ("AUAAAAGCGCCAGAACUACAGAAAUGUAGUUGACGAGGAGGAUGUAGAUCGAAUUUUCGGCGGAUGCCUGCAAA", "< 1e-05 s⁻¹"),
    ("AUAAAAGCGCCAGAACUACAGAAAUGUAGUUGACGAGGAGGAGGUUUAUCGACUUUUCGGCGGAUGCUUCCAAA", "8.77e-05 s⁻¹"),
    ("AUAAAAGCGCCAGAACUACAGAAAUGUAGUCGACGAGGUGGAGGUUUAUCGAAUUUUCGGCGGAUGCCUCCAAA", "0.00175 s⁻¹"),
    ("AUAAAAGCGCCAGAACUACAGAAAUGUAGUUGCCGAGGAGGAUGUUUAUCGAAUUUUCGGCGUAUGCCUCCAAA", "< 1e-05 s⁻¹"),
    ("AUAAAAGCGCCAGAACUACAGAAAUGUAGUUGACGAGGAGGAGGUUAAUCGAAUUUUCGGCGCAUGCCUCCAAA", "< 1e-05 s⁻¹"),
    ("AUAAACGCGCCAGAACUACAGAAAUGUAGUUGAUGAGGAGGAGGUUUAUGGAAUUUUCGGCGGAUGCCUCCAAA", "0.000502 s⁻¹"),
    ("AUAAACGCGCCAGAAUUACAGAAAUGUAGUUGACGAGGACGAGGUUCAUCGAAUUUUCGUCGGAUGCCUCCAAA", "< 1e-05 s⁻¹"),
    ("AUAAAAGCGCCAGAACUACAGAAAUGUAGUUGAUGAGGAUGAGGUUUAUCGAAUUUUCGGCGGAUGGCUCCAAA", "< 1e-05 s⁻¹"),
    ("AUAAAAGCGCCUGAACUACAGAAAUGUAGCUGACGAGGAGGAGGUUUAUCGACUUUUCGGCGGAUGCCUCCAAA", "0.000389 s⁻¹"),
    ("AUAAAAGCGCCAGAGCUACAGAAAUGUAGUUGACGAGGAGGAGGGUUAUCGAAUUUUCGGCGGAUGCCUCCAAA", "0.0044 s⁻¹"),
    ("AUAAAAGGGCCAGAAGUACAGAAAUGUAGUUGACGAGGAGGAGGUUUAUCGAAUUAUCGGCGGAUGCCUCCAAA", "< 1e-05 s⁻¹"),
    ("AUAAAAGCGCCAGAACUACAGAAAUGUAGUUGACGAGGAGGAGGUUGAUCGAAUUUUCGGCGGAUUCCUCCAAA", "0.000106 s⁻¹"),
    ("AUAAAAGCGCCAGUACUACAGAAAUGUAGUUGACGAGGAGGAGUUUUAUCGAAAUUUCCGCGGAUGCUUCCAAA", "< 1e-05 s⁻¹"),
    ("AUAAAAGGCCCAGAACUACAGAAAUGUAGUUGACGAGGAGGAGGUUUAUCGAAUAUUCGGCGGAUGCCUCCAAA", "< 1e-05 s⁻¹"),
    ("AUAAAAGCGCCAGAACUACAGAAAUGUAGUUGACGAGGAGGAGGUUUAUCGCAUUUUCGGCGGAUGCCUCGAAA", "< 1e-05 s⁻¹"),
    ("AUAAAAGCGCCAGAACUACAGAAAUGUAGUUGACGAGGAGGAGGUUUAUCGAAGUUUCGGCGGAUGUCUCCAAA", "0.00208 s⁻¹"),
    ("AUAAAAGCGUCAGAAUUACAGAAAUGUAGUUGACGAGGUGGAGGUUUAUCGAAUUUUCGUCGGAUGGCGCCAAA", "< 1e-05 s⁻¹"),
    ("AUAAAAGCGGCAGAACUACAGAAAUGUAGUUGACGAGGAAGAGGUUUAUCGAAUUUUCGGCGGAUGCCUACAAA", "< 1e-05 s⁻¹"),
    ("AUAAAAGCAUCAGAACUACAGAAAUGUAGAUGACGAGGAGGAGAUUUAUCGAAUUUUCGGCGGAUGCCUCCAAA", "< 1e-05 s⁻¹"),
    ("AUAAAAGCGCCAGUACUACAGAAAUGUAGUUGACGAGGAGGAGGUUUAUCGAAUUUUCGGCGGAUACCUCCAAA", "0.00172 s⁻¹"),
    ("AUAAAAGCGCCAGAACUACAGAAAUGUAGGUGACAAGGUGGAGGUUUAUCGAAUCUUCGGCGGAUGCCUCCAAA", "< 1e-05 s⁻¹"),
    ("AUAAAAGCGCAAGAACUACAGAAAUGUAGUUGACGAGGAGGAGGUUUAUCGAAUUUUCUGCGGAUGCCUCCAAA", "0.00743 s⁻¹"),
]
